- Tested on: Streptococcus agalactiae CMX 508
Give measured MIC for each item. Keep answers brief.
One number for each entry, in µg/mL.

CCCN(C)[C@H]1C[C@@H](C)O[C@@H](O[C@@H]2[C@@H](C)C(=O)[C@@H](C)C(=O)O[C@H](CC)[C@@]3(C)OC(=O)N[C@@H]3[C@@H](C)C(=O)[C@H](C)C[C@@]2(C)OCC=Cc2cnc3ccccc3c2)[C@@H]1O	0.01
CC[C@H]1OC(=O)[C@H](C)C(=O)[C@H](C)[C@@H](O[C@@H]2O[C@H](C)C[C@H](N(C)Cc3ccccc3)[C@H]2O)[C@](C)(OCC=Cc2cnc3ccccc3c2)C[C@@H](C)C(=O)[C@H](C)[C@H]2NC(=O)O[C@@]21C	0.02
C=CCN(C)[C@H]1C[C@@H](C)O[C@@H](O[C@@H]2[C@@H](C)C(=O)[C@@H](C)C(=O)O[C@H](CC)[C@@]3(C)OC(=O)N[C@@H]3[C@@H](C)C(=O)[C@H](C)C[C@@]2(C)OCC=Cc2cnc3ccccc3c2)[C@@H]1O	0.05

# next compound below
Query :: Retrieve MIC measured for C=C(CN(C)[C@H]1C[C@@H](C)O[C@@H](O[C@@H]2[C@@H](C)C(=O)[C@@H](C)C(=O)O[C@H](CC)[C@@]3(C)OC(=O)N[C@@H]3[C@@H](C)C(=O)[C@H](C)C[C@@]2(C)OCC=Cc2cnc3ccccc3c2)[C@@H]1O)C(=O)OC and print it.
Result :: 0.02

====

- System: Staphylococcus epidermidis 3519
assay-endpoint: MIC (µg/mL)
Numbers only, in µg/mL.

A selection of reference data follows.
CC[C@H]1OC(=O)[C@H](C)C(=O)[C@H](C)[C@@H](O[C@@H]2O[C@H](C)C[C@H](N(C)C3CC3)[C@H]2O)[C@](C)(OCC=Cc2cnc3ccccc3c2)C[C@@H](C)C(=O)[C@H](C)[C@H]2NC(=O)O[C@@]21C [Example 13]	3.1
CC[C@H]1OC(=O)[C@H](C)C(=O)[C@H](C)[C@@H](O[C@@H]2O[C@H](C)C[C@H](N(C)CC#N)[C@H]2O)[C@](C)(OCC=Cc2cnc3ccccc3c2)C[C@@H](C)C(=O)[C@H](C)[C@H]2NC(=O)O[C@@]21C	0.2
CC[C@H]1OC(=O)[C@H](C)C(=O)[C@H](C)[C@@H](O[C@@H]2O[C@H](C)C[C@H](N(C)CCF)[C@H]2O)[C@](C)(OCC=Cc2cnc3ccccc3c2)C[C@@H](C)C(=O)[C@H](C)[C@H]2NC(=O)O[C@@]21C	0.2
CCOC(=O)CN(C)[C@H]1C[C@@H](C)O[C@@H](O[C@@H]2[C@@H](C)C(=O)[C@@H](C)C(=O)O[C@H](CC)[C@@]3(C)OC(=O)N[C@@H]3[C@@H](C)C(=O)[C@H](C)C[C@@]2(C)OCC=Cc2cnc3ccccc3c2)[C@@H]1O	12.5
CC[C@H]1OC(=O)[C@H](C)C(=O)[C@H](C)[C@@H](O[C@@H]2O[C@H](C)C[C@H](N(C)Cc3cccnc3)[C@H]2O)[C@](C)(OCC=Cc2cnc3ccccc3c2)C[C@@H](C)C(=O)[C@H](C)[C@H]2NC(=O)O[C@@]21C	0.39
CC[C@H]1OC(=O)[C@H](C)C(=O)[C@H](C)[C@@H](O[C@@H]2O[C@H](C)C[C@H](N(C)CC=Cc3ccccc3)[C@H]2O)[C@](C)(OCC=Cc2cnc3ccccc3c2)C[C@@H](C)C(=O)[C@H](C)[C@H]2NC(=O)O[C@@]21C	0.39
CC[C@H]1OC(=O)[C@H](C)C(=O)[C@H](C)[C@@H](O[C@@H]2O[C@H](C)C[C@H](NC)[C@H]2O)[C@](C)(OCC=Cc2cnc3ccccc3c2)C[C@@H](C)C(=O)[C@H](C)[C@H]2NC(=O)O[C@@]21C	0.39
C=CCN(C)[C@H]1C[C@@H](C)O[C@@H](O[C@@H]2[C@@H](C)C(=O)[C@@H](C)C(=O)O[C@H](CC)[C@@]3(C)OC(=O)N[C@@H]3[C@@H](C)C(=O)[C@H](C)C[C@@]2(C)OCC=Cc2cnc3ccccc3c2)[C@@H]1O	0.2

# next compound below
Query :: Retrieve MIC measured for C#CCN(C)[C@H]1C[C@@H](C)O[C@@H](O[C@@H]2[C@@H](C)C(=O)[C@@H](C)C(=O)O[C@H](CC)[C@@]3(C)OC(=O)N[C@@H]3[C@@H](C)C(=O)[C@H](C)C[C@@]2(C)OCC=Cc2cnc3ccccc3c2)[C@@H]1O and print it.
Result :: 0.2

====

Record type: MIC measurement. Applies to: Mycobacterium smegmatis ATCC 114
Numbers only, in µg/mL.

CC[C@H]1OC(=O)[C@H](C)C(=O)[C@H](C)[C@@H](O[C@@H]2O[C@H](C)C[C@H](N(C)C3CC3)[C@H]2O)[C@](C)(OCC=Cc2cnc3ccccc3c2)C[C@@H](C)C(=O)[C@H](C)[C@H]2NC(=O)O[C@@]21C [Example 13]	3.1
C=CCN(C)[C@H]1C[C@@H](C)O[C@@H](O[C@@H]2[C@@H](C)C(=O)[C@@H](C)C(=O)O[C@H](CC)[C@@]3(C)OC(=O)N[C@@H]3[C@@H](C)C(=O)[C@H](C)C[C@@]2(C)OCC=Cc2cnc3ccccc3c2)[C@@H]1O [Example 6]	0.2

# next molecule below
Query :: Retrieve MIC measured for CC[C@H]1OC(=O)[C@H](C)C(=O)[C@H](C)[C@@H](O[C@@H]2O[C@H](C)C[C@H](N(C)C3CC3)[C@H]2O)[C@](C)(OCC=Cc2cnc3ccccc3c2)C[C@@H](C)C(=O)[C@H](C)[C@H]2NC(=O)O[C@@]21C [Example 20] and print it.
Result :: 3.1

====

- System: Enterococcus faecium ATCC 8043
assay-endpoint: log10 of MIC (log10 of the value in µg/mL)
Recall that a logarithmic scale is used here: each number is log10 of MIC in µg/mL.

A selection of reference data follows.
C=CCN(C)[C@H]1C[C@@H](C)O[C@@H](O[C@@H]2[C@@H](C)C(=O)[C@@H](C)C(=O)O[C@H](CC)[C@@]3(C)OC(=O)N[C@@H]3[C@@H](C)C(=O)[C@H](C)C[C@@]2(C)OCC=Cc2cnc3ccccc3c2)[C@@H]1O	-1.30
CC[C@H]1OC(=O)[C@H](C)C(=O)[C@H](C)[C@@H](O[C@@H]2O[C@H](C)C[C@H](N(C)Cc3ccccc3)[C@H]2O)[C@](C)(OCC=Cc2cnc3ccccc3c2)C[C@@H](C)C(=O)[C@H](C)[C@H]2NC(=O)O[C@@]21C	-1.00
CC[C@H]1OC(=O)[C@H](C)[C@@H](O[C@H]2C[C@@](C)(OC)[C@@H](O)[C@H](C)O2)[C@H](C)[C@@H](O[C@@H]2O[C@H](C)C[C@H](N(C)C)[C@H]2O)[C@](C)(O)C[C@@H](C)C(=O)[C@H](C)[C@@H](O)[C@]1(C)O [Ery. A, Erythromycin A, reference compound]	-1.30
CC[C@H]1OC(=O)[C@H](C)C(=O)[C@H](C)[C@@H](O[C@@H]2O[C@H](C)C[C@H](N(C)C3CC3)[C@H]2O)[C@](C)(OCC=Cc2cnc3ccccc3c2)C[C@@H](C)C(=O)[C@H](C)[C@H]2NC(=O)O[C@@]21C [Example 20]	-0.41

For each of the items listed, what is its log10 of MIC?
1. CC[C@H]1OC(=O)[C@H](C)C(=O)[C@H](C)[C@@H](O[C@@H]2O[C@H](C)C[C@H](N(C)Cc3cccnc3)[C@H]2O)[C@](C)(OCC=Cc2cnc3ccccc3c2)C[C@@H](C)C(=O)[C@H](C)[C@H]2NC(=O)O[C@@]21C
2. CCOC(=O)CN(C)[C@H]1C[C@@H](C)O[C@@H](O[C@@H]2[C@@H](C)C(=O)[C@@H](C)C(=O)O[C@H](CC)[C@@]3(C)OC(=O)N[C@@H]3[C@@H](C)C(=O)[C@H](C)C[C@@]2(C)OCC=Cc2cnc3ccccc3c2)[C@@H]1O
3. CC[C@H]1OC(=O)[C@H](C)C(=O)[C@H](C)[C@@H](O[C@@H]2O[C@H](C)C[C@H](N(C)C3CC3)[C@H]2O)[C@](C)(OCC=Cc2cnc3ccccc3c2)C[C@@H](C)C(=O)[C@H](C)[C@H]2NC(=O)O[C@@]21C [Example 13]
4. CC[C@H]1OC(=O)[C@H](C)C(=O)[C@H](C)[C@@H](O[C@@H]2O[C@H](C)C[C@H](N(C)CC#N)[C@H]2O)[C@](C)(OCC=Cc2cnc3ccccc3c2)C[C@@H](C)C(=O)[C@H](C)[C@H]2NC(=O)O[C@@]21C
5. C#CCN(C)[C@H]1C[C@@H](C)O[C@@H](O[C@@H]2[C@@H](C)C(=O)[C@@H](C)C(=O)O[C@H](CC)[C@@]3(C)OC(=O)N[C@@H]3[C@@H](C)C(=O)[C@H](C)C[C@@]2(C)OCC=Cc2cnc3ccccc3c2)[C@@H]1O
6. CC[C@H]1OC(=O)[C@H](C)C(=O)[C@H](C)[C@@H](O[C@@H]2O[C@H](C)C[C@H](N(C)CCF)[C@H]2O)[C@](C)(OCC=Cc2cnc3ccccc3c2)C[C@@H](C)C(=O)[C@H](C)[C@H]2NC(=O)O[C@@]21C
7. C=C(C)CN(C)[C@H]1C[C@@H](C)O[C@@H](O[C@@H]2[C@@H](C)C(=O)[C@@H](C)C(=O)O[C@H](CC)[C@@]3(C)OC(=O)N[C@@H]3[C@@H](C)C(=O)[C@H](C)C[C@@]2(C)OCC=Cc2cnc3ccccc3c2)[C@@H]1O

Result ::
[-1.30, 0.79, -0.41, -1.00, -1.30, -1.30, -1.00]

For each of the items listed, what is its log10 of MIC?
1. CC[C@H]1OC(=O)[C@H](C)C(=O)[C@H](C)[C@@H](O[C@@H]2O[C@H](C)C[C@H](NC)[C@H]2O)[C@](C)(OCC=Cc2cnc3ccccc3c2)C[C@@H](C)C(=O)[C@H](C)[C@H]2NC(=O)O[C@@]21C
2. CC[C@H]1OC(=O)[C@H](C)C(=O)[C@H](C)[C@@H](O[C@@H]2O[C@H](C)C[C@H](NC)[C@H]2OC(C)=O)[C@](C)(OCC=Cc2cnc3ccccc3c2)C[C@@H](C)C(=O)[C@H](C)[C@H]2NC(=O)O[C@@]21C
3. CCCN(C)[C@H]1C[C@@H](C)O[C@@H](O[C@@H]2[C@@H](C)C(=O)[C@@H](C)C(=O)O[C@H](CC)[C@@]3(C)OC(=O)N[C@@H]3[C@@H](C)C(=O)[C@H](C)C[C@@]2(C)OCC=Cc2cnc3ccccc3c2)[C@@H]1O
4. CC[C@H]1OC(=O)[C@H](C)C(=O)[C@H](C)[C@@H](O[C@@H]2O[C@H](C)C[C@H](N(C)CC3CC3)[C@H]2O)[C@](C)(OCC=Cc2cnc3ccccc3c2)C[C@@H](C)C(=O)[C@H](C)[C@H]2NC(=O)O[C@@]21C
5. C=C(CN(C)[C@H]1C[C@@H](C)O[C@@H](O[C@@H]2[C@@H](C)C(=O)[C@@H](C)C(=O)O[C@H](CC)[C@@]3(C)OC(=O)N[C@@H]3[C@@H](C)C(=O)[C@H](C)C[C@@]2(C)OCC=Cc2cnc3ccccc3c2)[C@@H]1O)C(=O)OC

Result ::
1. -0.70
2. -1.30
3. -1.30
4. -1.30
5. -1.00
